Please provide measured GI50 for the entries that follow.
test system: SR; test: NCI tumour cell line growth inhibition, 48 h
The source made the active and inactive calls. No stated cut-off is given here; in the data, active = GI50 up to about 1.1 µM and inactive = higher.

Look over these answered cases.
Prompt: Given the entry CC(NO)/C(=N/O)c1ccco1 (stereo not given) , report its measured GI50.
Completion: > 10 µM (inactive)

Prompt: Same question for CC(C)[C@H](CCl)NC(=O)c1cccc(C(=O)N[C@H](CCl)C(C)C)n1 (stereo in doubt) please.
Completion: > 100 µM (inactive)

Prompt: Same question for CNC(=S)N/N=C(\C)c1nc2cccnc2[nH]1 please.
Completion: 28.4 µM (inactive)

Prompt: Same question for C=CCN1C(=O)CC1N(CC=C)S(=O)(=O)c1ccc(C)cc1 (stereo not given) please.
Completion: 82.8 µM (inactive)

Moving on to another molecule below.
Prompt: Given the entry C/C(=N\NC(N)=S)C(CN(CC(C)C)CC(C)C)C(=O)Nc1ccc(C)cc1C (stereo not given) , report its measured GI50.
Completion: > 100 µM (inactive)
